Form field: pIC50 (one value per entry).
- Tested on: Acinetobacter baumannii
- experimental_details: Antibacterial activity against efflux pump lacking/recombinant OM pore producing Acinetobacter baumannii assessed as inhibition of bacterial growth
- Type: functional, organism-based
pIC50: −log10 of the molar value.
endpoint: pIC50

compound: O=C1O[C@@H](CO)CN1c1ccc(-c2ccc(SC(F)(F)F)cc2)c(F)c1
comparison_operator: =
measured: 5.09

compound: C[n+]1ccc2ccc(-c3ccc(N4C[C@H](CO)OC4=O)cc3F)cc2c1
comparison_operator: =
measured: 5.03

compound: CC(O)c1ccc(OCC#Cc2ccc(N3C[C@H](CO)OC3=O)cc2F)cc1 (stereo not given in full)
comparison_operator: =
measured: 4.46

compound: CC(=O)N1CCN(CC#Cc2ccc(N3C[C@H](CO)OC3=O)cc2F)CC1
comparison_operator: <
measured: 4.00

compound: N/C(=N/O)c1ccc(-c2ccc(N3C[C@H](CO)OC3=O)cc2F)cc1
comparison_operator: =
measured: 6.05
